assayTarget: 5-HT2C (Homo sapiens, UniProt P28335)
Sequence (P28335 33-458): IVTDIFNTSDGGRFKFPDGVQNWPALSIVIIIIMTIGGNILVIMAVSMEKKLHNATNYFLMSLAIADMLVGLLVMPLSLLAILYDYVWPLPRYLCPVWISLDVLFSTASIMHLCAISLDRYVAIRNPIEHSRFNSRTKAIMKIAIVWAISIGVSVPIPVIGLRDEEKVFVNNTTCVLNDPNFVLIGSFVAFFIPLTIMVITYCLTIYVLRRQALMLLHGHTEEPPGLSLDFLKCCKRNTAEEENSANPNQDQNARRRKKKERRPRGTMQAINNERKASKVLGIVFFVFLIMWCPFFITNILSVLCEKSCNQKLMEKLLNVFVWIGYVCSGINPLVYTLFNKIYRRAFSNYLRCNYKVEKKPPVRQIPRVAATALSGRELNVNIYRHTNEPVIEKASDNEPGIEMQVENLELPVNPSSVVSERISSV
protocol: Intracellular calcium flux assay, HEK 293 cells stably expressing 5-HT2C
Assay type: cell-based
Set-up: expressed in transfected cells; host or cells: HEK 293
conditionInfo: HEK293, read-out: 5-HT2C efficacy as percentage of the maximal 5-HT response ± SD, at least three independent experiments, entries marked a (42, 50, 51, 52) single measurements
Reported values of Emax for individual entries
Reply with just the number (in %).

Check out these entries, answers already filled in.
>>> endpointvalue("CCOc1c(F)ccc2c1c(CCN(C)C)cn2CC.Cl [Compound 60, hydrochloride]")
69
>>> endpointvalue("CCn1cc(CCN(C)C)c2c(OC)c(F)ccc21.Cl [Compound 41, hydrochloride]")
37

Consider the additional molecule presented here.
Query: Give 5-HT2C (Homo sapiens, UniProt P28335) Emax for the following molecule: CCCn1cc(CCN(C)C)c2c(OC)cc(F)cc21.Cl [Compound 37, hydrochloride]
Result: 69

====

assayTarget: 5-HT2C (Homo sapiens, UniProt P28335)
protocol: Intracellular calcium flux assay, HEK 293 cells stably expressing 5-HT2C;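 also: calcium dye fluorescence read on FLIPR Tetra as peak signal above baseline within 60 s of compound addition, seven concentrations from 10 pM to 10 µM, each in triplicate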
conditionInfo: at least three independent experiments, entries marked a (42, 50, 51, 52) single measurements, read-out: 5-HT2C mean EC50 ± SD
Where a name gives a salt, the structure may show the parent alone.
Reported values of log10(EC50) for individual entries
Each number you see is log10 of EC50, and the unit inside the log is nM.

>>> endpointvalue("CCOc1c(F)ccc2c1c(CCN(C)C)cn2C [Compound 59, hydrochloride]")
-0.09

Consider the additional compound presented here.
Query: State, in one line, measured log10(EC50) of CCCn1cc(CCN(C)C)c2c(OCC)c(F)ccc21.Cl [Compound 61, hydrochloride]
Result: 1.11

====

assayTarget: human 5-HT2B receptor (Homo sapiens)
Construct: expressed in transfected cells; host or cells: HEK 293
Sequence (P41595 whole entry): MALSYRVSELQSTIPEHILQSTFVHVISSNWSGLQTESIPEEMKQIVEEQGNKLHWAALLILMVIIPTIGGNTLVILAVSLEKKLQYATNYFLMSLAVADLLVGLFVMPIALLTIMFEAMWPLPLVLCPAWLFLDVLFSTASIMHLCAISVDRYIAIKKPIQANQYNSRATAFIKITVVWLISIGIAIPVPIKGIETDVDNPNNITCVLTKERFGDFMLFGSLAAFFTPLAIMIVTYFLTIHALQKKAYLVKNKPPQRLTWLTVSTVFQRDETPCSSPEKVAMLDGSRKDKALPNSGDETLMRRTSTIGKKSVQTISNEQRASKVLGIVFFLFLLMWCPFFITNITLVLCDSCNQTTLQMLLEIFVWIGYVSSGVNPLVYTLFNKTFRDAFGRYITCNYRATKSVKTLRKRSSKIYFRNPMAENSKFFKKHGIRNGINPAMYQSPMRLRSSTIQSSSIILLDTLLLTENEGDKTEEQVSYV
protocol: Intracellular calcium flux assay, HEK 293 cells stably expressing 5-HT2B;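 also: calcium dye fluorescence read on a FLIPR Tetra, peak signal above baseline within 60 s after compound addition, seven-point concentration series from 10 pM up to 10 µM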
Format: cell-based
conditionInfo: HEK293, read-out: 5-HT2B efficacy as percentage of the maximal 5-HT response ± SD; calcium flux; at least three independent experiments
Reported values of Emax for individual entries
Reply with just the number (in %).

>>> endpointvalue("CCCOc1ccc(F)c2c1c(CCN(C)C)cn2C [Compound 27]")
54
>>> endpointvalue("CCCOc1ccc(F)c2c1c(CCN(C)C)cn2CC [Compound 25]")
31
>>> endpointvalue("CCOc1cc(F)cc2c1c(CCN(C)C)cn2CC [Compound 35]")
47
>>> endpointvalue("CCCOc1cc(F)cc2c1c(CCN(C)C)cn2CCC.Cl [Compound 39, hydrochloride]")
26
>>> endpointvalue("CCOc1ccc(F)c2c1c(CCN(C)C)cn2C [Compound 26]")
28
>>> endpointvalue("CCn1cc(CCN(C)C)c2c(OC)cc(F)cc21.Cl [Compound 34, hydrochloride]")
21
>>> endpointvalue("COc1cc(F)cc2c1c(CCN(C)C)cn2C.Cl [Compound 31, hydrochloride]")
51
>>> endpointvalue("CCCOc1cc(F)cc2c1c(CCN(C)C)cn2C.Cl [Compound 33, hydrochloride]")
78

Consider the additional molecule presented here.
Query: State, in one line, measured Emax of CCOc1cc(F)cc2c1c(CCN(C)C)cn2C.Cl [Compound 32, hydrochloride]
Result: 66

Origin of values: patent US20090318527A1
